system: SF-268 CNS; assay: NCI tumour cell line growth inhibition, 48 h
Recorded TGI values for a group of compounds are listed next.
readout name: TGI

>>> result("CC(=O)[O-].O=[N+]([O-])c1ccc([O-])c(C=NCCN=Cc2cc([N+](=O)[O-])ccc2[O-])c1.[Mn+3]")
"> 100 µM"
>>> result("C/C(=N\\O)[C@H]1CC[C@@]2(C)[C@@H]3CC[C@H]4C(C)(C)/C(=N/O)CC[C@@]45CC35CC[C@]12C (some centres undefined)")
"14.1 µM"
>>> result("CCCCCCCCCCCCNC(=O)[C@H]1CSC(c2ccsc2)N1 (some centres undefined)")
"1.45 µM"
>>> result("CCc1nc2c([nH]1)C(=O)c1ccccc1C2=O")
"> 100 µM"
>>> result("COc1ccc(-c2nn(-c3cccc(Cl)c3)cc2/C=C2\\C(=N)N(c3ccccc3)N=C2N)cc1")
"> 100 µM"
>>> result("Cc1ccc(S(=O)c2ccc([N+](=O)[O-])c3nonc23)cc1 (centres undefined)")
"29.9 µM"
>>> result("O=c1/c(=C/c2ccc3c(c2)OCO3)sc2nnc(Cc3ccccc3)n12")
"> 100 µM"
>>> result("Cc1cc(S(N)(=O)=O)c(S/C(=N\\NS(=O)(=O)c2ccccc2)c2ccc(Cl)c(Cl)c2)cc1Cl")
"> 100 µM"
>>> result("CC1=[N+]([O-])C2(CCCC2)N(O)C1(C)C")
"> 100 µM"
